test.target: Retinoic acid receptor RXR-alpha (Homo sapiens, UniProt P19793)
Sequence (P19793 whole entry): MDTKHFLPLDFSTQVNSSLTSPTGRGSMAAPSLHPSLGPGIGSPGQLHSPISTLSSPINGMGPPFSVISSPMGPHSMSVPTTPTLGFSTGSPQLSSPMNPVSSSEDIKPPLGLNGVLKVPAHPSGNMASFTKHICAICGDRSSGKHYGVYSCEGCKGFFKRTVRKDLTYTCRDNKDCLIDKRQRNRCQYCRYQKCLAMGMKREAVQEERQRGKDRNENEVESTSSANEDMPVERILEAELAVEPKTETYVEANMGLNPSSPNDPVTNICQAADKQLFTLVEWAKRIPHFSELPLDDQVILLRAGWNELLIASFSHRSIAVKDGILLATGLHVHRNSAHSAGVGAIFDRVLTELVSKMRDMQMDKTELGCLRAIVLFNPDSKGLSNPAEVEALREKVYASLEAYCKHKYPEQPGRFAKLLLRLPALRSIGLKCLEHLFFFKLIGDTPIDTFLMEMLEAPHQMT
assay.remarks: Transcriptional activation in CV-1 cells expressing Retinoid X receptor alpha
observed.property: EC50 (nM)
Give your result in nM as a bare value.

"C/C(=C\C(=O)O)c1cc2c(-c3cc(C(C)(C)C)cc(C(C)(C)C)c3C)cccc2s1" yielded EC50 of 39

"CCOc1c(-c2cccc3cc(/C(C)=C/C(=O)O)sc23)cc(C(C)C)cc1C(C)C" yielded EC50 of 390

"CCOc1c(-c2cccc3sc(/C(C)=C/C(=O)O)cc23)cc(C(C)C)cc1C(C)C" yielded EC50 of 20

"CCOc1c(-c2cccc3cc(/C(C)=C/C(=O)O)oc23)cc(C(C)C)cc1C(C)C" yielded EC50 of 74
